Property: IC50; scope: individual molecules
# assay.target: NEP enzyme (Homo sapiens)
# Construct: purchased R&D Systems, Minneapolis, Minn; 1182-ZN
# Sequence (P08473 52-750 limits assumed): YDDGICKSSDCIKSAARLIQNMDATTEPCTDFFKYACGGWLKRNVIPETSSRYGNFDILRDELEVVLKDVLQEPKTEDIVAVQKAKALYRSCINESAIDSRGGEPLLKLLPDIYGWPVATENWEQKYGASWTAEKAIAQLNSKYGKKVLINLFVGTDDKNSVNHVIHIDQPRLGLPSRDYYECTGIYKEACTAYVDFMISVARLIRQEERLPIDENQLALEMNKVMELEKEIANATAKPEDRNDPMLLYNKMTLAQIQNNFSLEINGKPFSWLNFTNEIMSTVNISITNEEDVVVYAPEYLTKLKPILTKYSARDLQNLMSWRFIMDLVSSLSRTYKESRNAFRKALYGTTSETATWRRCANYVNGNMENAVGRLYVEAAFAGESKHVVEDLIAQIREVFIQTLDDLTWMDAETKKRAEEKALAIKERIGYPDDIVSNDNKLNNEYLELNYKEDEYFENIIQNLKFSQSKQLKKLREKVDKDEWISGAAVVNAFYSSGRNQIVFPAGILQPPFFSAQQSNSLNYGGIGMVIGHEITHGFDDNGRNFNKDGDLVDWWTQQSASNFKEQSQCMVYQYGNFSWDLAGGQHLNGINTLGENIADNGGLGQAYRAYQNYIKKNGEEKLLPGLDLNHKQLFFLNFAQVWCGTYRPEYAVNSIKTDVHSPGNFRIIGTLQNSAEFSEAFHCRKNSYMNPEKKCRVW
# assay: NEP enzyme inhibition assay (fluorogenic peptide substrate)
# Format: biochemical
# condition.description: values given as lower bounds; * = prodrugs, may not exhibit NEP activity in an in vitro assay; read-out: NEP pIC50 (converted)

Problem: Need IC50 of CCCc1cc(C(=O)N[C@@H](CS)Cc2ccccc2)nn1Cc1ccc(-c2ccccc2-c2nnn[nH]2)c(F)c1 , thanks.
Result: ≤ 100 nM

Problem: Check CCCc1cc(C(=O)N[C@H](Cc2ccccc2)[C@@H](O)C(=O)O)nn1Cc1ccc(-c2ccccc2S(=O)(=O)NC(=O)N2CCCC2)cc1 too.
Result: ≤ 100 nM

Problem: Check CCCc1cc(C(=O)N[C@@H](CC(=O)O)Cc2ccccc2Cl)nn1Cc1ccc(-c2ccccc2-c2nnn[nH]2)nc1 too.
Result: ≤ 100 nM

Problem: Check CCCc1cc(C(=O)N[C@H](Cc2ccccc2)[C@@H](O)C(=O)OC)nn1Cc1ccc(-c2ccccc2-c2nnn[nH]2)cc1 too.
Result: ≤ 10000 nM

====

Property: Ki; scope: individual compounds
# assay.target: human AT1 receptor (Homo sapiens, UniProt P30556)
# Construct: expressed in transfected cells; host or cells: CHO-K1
# Sequence (P30556 whole entry): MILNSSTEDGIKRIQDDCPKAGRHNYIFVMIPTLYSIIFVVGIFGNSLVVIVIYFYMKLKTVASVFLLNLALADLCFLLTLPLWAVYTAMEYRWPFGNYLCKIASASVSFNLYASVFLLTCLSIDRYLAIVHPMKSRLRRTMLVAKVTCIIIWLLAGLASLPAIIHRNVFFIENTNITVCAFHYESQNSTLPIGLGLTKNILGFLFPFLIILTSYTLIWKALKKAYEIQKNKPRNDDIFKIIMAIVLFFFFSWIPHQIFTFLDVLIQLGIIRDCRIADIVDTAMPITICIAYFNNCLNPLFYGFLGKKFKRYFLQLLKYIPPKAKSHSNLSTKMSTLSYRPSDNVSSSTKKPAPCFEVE
# assay: AT1 radioligand binding assay (displacement of [Eu]AngII)
# condition.description: membranes of CHO-K1 cells expressing cloned human AT1 receptor; values given as lower bounds; read-out: AT1 pKi (converted)
# Text: A. AT1 and AT2 Radioligand Binding Assays These in vitro assays were used to assess the ability of test compounds to bind to the AT1 and the AT2 receptors. Membrane Preparation from Cells Expressing Human AT1 or AT2 Receptors […]

* CCCc1cc(C(=O)N[C@H](Cc2ccccc2)[C@@H](O)C(=O)O)nn1Cc1ccc(-c2ccccc2S(=O)(=O)NC(=O)C2CC2)cc1 [Example 7-2] | ≤ 10 nM
* CCCc1cc(C(=O)N[C@H](Cc2ccccc2)[C@@H](O)C(=O)O)nn1Cc1ccc(-c2ccccc2S(=O)(=O)NC(=O)c2ccno2)cc1 [Example 7-6] | ≤ 10 nM
* CCCc1cc(C(=O)N[C@@H](CC(=O)O)Cc2ccccc2Cl)nn1Cc1ccc(-c2ccccc2-c2nnn[nH]2)cc1F [Example 3-20] | ≤ 100 nM
* CCCCc1cc(C(=O)N[C@@H](CS)CC(C)C)nn1Cc1ccc(-c2ccccc2C(=O)O)cc1F [Example 9-3] | ≤ 100 nM
* CCc1cc(C(=O)N[C@H](Cc2ccccc2)[C@@H](O)C(=O)O)nn1Cc1ccc(-c2ccccc2-c2nnn[nH]2)cc1F [Example 3-37] | ≤ 100 nM

Please look at the following compound next.
Problem: Need Ki of CCOc1cc(C(=O)N[C@H](Cc2ccccc2)[C@@H](O)C(=O)O)nn1Cc1ccc(-c2ccccc2-c2nnn[nH]2)cc1 [Example 3-9] , thanks.
Result: ≤ 100 nM

====

# assay.target: NEP enzyme (Homo sapiens)
# Construct: purchased R&D Systems, Minneapolis, Minn; 1182-ZN
# assay: NEP enzyme inhibition assay (fluorogenic peptide substrate)
# Format: biochemical
# condition.description: values given as lower bounds; * = prodrugs, may not exhibit NEP activity in an in vitro assay; read-out: NEP pIC50 (converted)
reported.endpoint: IC50

* CCCc1cc(C(=O)N[C@H](Cc2ccccc2)[C@@H](O)C(=O)O)nn1Cc1ccc(-c2ccccc2S(=O)(=O)NC(=O)C(C)C)cc1 [Example 6-12] | ≤ 1000 nM
* CCCc1cc(C(=O)N[C@@H](CC(=O)O)Cc2ccccc2Cl)nn1Cc1ccc(-c2ccccc2S(=O)(=O)NC(C)=O)cn1 [Example 15-4] | ≤ 1000 nM
* CCCc1cc(C(=O)N[C@H](Cc2ccccc2)[C@@H](O)C(=O)O)nn1Cc1ccc(-c2ccccc2S(=O)(=O)NC(=O)COC)cc1 [Example 7-8] | ≤ 1000 nM
* CCCc1cc(C(=O)N[C@@H](CC(=O)O)Cc2ccccc2C(F)(F)F)nn1Cc1ccc(-c2ccccc2-c2nnn[nH]2)nc1 [Example 11] | ≤ 100 nM
* CCc1cc(C(=O)N[C@H](Cc2ccccc2)[C@@H](O)C(=O)O)nn1Cc1ccc(-c2ccccc2-c2nnn[nH]2)cc1F [Example 3-37] | ≤ 10000 nM

Problem: API: value(readout= IC50, system= NEP enzyme (Homo sapiens), query= CCOc1cc(C(=O)N[C@@H](CS)CC(C)C)nn1Cc1ccc(-c2ccccc2-c2nnn[nH]2)cc1 [Example 3-5] )
Result: ≤ 100 nM

====

# assay.target: human AT1 receptor (Homo sapiens)
# Construct: expressed in transfected cells; host or cells: CHO-K1
# assay: AT1 radioligand binding assay (displacement of [Eu]AngII)
# condition.description: membranes of CHO-K1 cells expressing cloned human AT1 receptor; values given as lower bounds; read-out: AT1 pKi (converted)
reported.endpoint: Ki

Some compounds with known Ki results, for comparison:
• CCCc1cc(C(=O)N[C@H](Cc2ccccc2)[C@@H](O)C(=O)O)nn1Cc1ccc(-c2ccccc2S(=O)(=O)NC(=O)OCC)cc1 [Example 7-7] = ≤ 10 nM
• CCCc1cc(C(=O)N[C@@H](CC(=O)NO)Cc2ccccc2)nn1Cc1ccc(-c2ccccc2-c2nnn[nH]2)cc1 [Example 3-16] = ≤ 10 nM
• CCCc1cc(C(=O)N[C@@H](CC(=O)OC)Cc2ccccc2Cl)nn1Cc1ccc(-c2ccccc2-c2nnn[nH]2)cc1 [Example 3-28] = ≤ 10 nM

Problem: API: value(readout= Ki, system= human AT1 receptor (Homo sapiens), query= CCOc1cc(C(=O)N[C@H](Cc2ccccc2)[C@@H](O)C(=O)O)nn1Cc1ccc(-c2ccccc2S(=O)(=O)NC(C)=O)cc1F [Example 6-4] )
Result: ≤ 10 nM

Problem: Check CCCc1cc(C(=O)N[C@H](Cc2ccccc2)[C@@H](O)C(=O)O)nn1Cc1c(F)cc(-c2ccccc2S(=O)(=O)NC(C)=O)cc1F [Example 6-19] too.
Result: ≤ 10 nM

Problem: Check CCc1cc(C(=O)N[C@H](Cc2ccccc2)[C@@H](O)C(=O)O)nn1Cc1ccc(-c2ccccc2S(=O)(=O)NC(C)=O)cc1F [Example 6-10] too.
Result: ≤ 100 nM

Problem: Check CCCc1cc(C(=O)N[C@@H](CS)Cc2ccccc2)nn1Cc1ccc(-c2ccccc2C(=O)O)cc1F [Example 8] too.
Result: ≤ 100 nM

Problem: Check CCCc1cc(C(=O)N[C@H](CC(C)C)[C@@H](O)C(=O)O)nn1Cc1ccc(-c2ccccc2-c2nnn[nH]2)nc1 [Example 14-8] too.
Result: ≤ 10 nM

====

# assay.target: human AT1 receptor (Homo sapiens, UniProt P30556)
# Construct: expressed in transfected cells; host or cells: CHO-K1
# assay: AT1 radioligand binding assay (displacement of [Eu]AngII)
# condition.description: membranes of CHO-K1 cells expressing cloned human AT1 receptor; values given as lower bounds; read-out: AT1 pKi (converted)
# Excerpt: A. AT1 and AT2 Radioligand Binding Assays These in vitro assays were used to assess the ability of test compounds to bind to the AT1 and the AT2 receptors. Membrane Preparation from Cells Expressing Human AT1 or AT2 Receptors […]
Property: Ki; scope: individual molecules

- CCOc1cc(C(=O)N[C@H](Cc2ccccc2)[C@@H](O)C(=O)O)nn1Cc1ccc(-c2ccccc2S(=O)(=O)NC(C)=O)cc1: ≤ 100 nM
- CCCc1cc(C(=O)N[C@@H](CC(=O)O)Cc2ccsc2)nn1Cc1ccc(-c2ccccc2-c2nnn[nH]2)nc1: ≤ 10 nM
- CCOc1cc(C(=O)N[C@@H](CS)Cc2ccccc2)nn1Cc1ccc(-c2ccccc2C(=O)O)cc1F: ≤ 100 nM

Problem: Need Ki of CCCc1cc(C(=O)N[C@H](Cc2ccccc2)[C@@H](O)C(=O)O)nn1Cc1ccc(-c2ccccc2S(=O)(=O)NC(=O)N(C)C)cc1 , thanks.
Result: ≤ 10 nM

Problem: Check CCCc1cc(C(=O)N[C@H](Cc2ccccc2)[C@@H](O)C(=O)O)nn1Cc1c(F)cc(-c2ccccc2-c2nnn[nH]2)cc1F too.
Result: ≤ 100 nM

Problem: Check CCCc1cc(C(=O)N[C@H](CC(C)C)CN(O)C=O)nn1Cc1ccc(-c2ccccc2S(=O)(=O)NC(C)=O)cc1 too.
Result: ≤ 10 nM

====

Property: IC50; scope: individual compounds
# assay.target: NEP enzyme (Homo sapiens)
# Construct: purchased R&D Systems, Minneapolis, Minn; 1182-ZN
# assay: NEP enzyme inhibition assay (fluorogenic peptide substrate)
# Type: biochemical
# condition.description: values given as lower bounds; * = prodrugs, may not exhibit NEP activity in an in vitro assay; read-out: NEP pIC50 (converted)
# Method: B. In Vitro Assays for the Quantitation of Inhibitor Potencies (IC50) at Human and Rat NEP, and Human ACE The inhibitory activities of compounds at human and rat NEP and human ACE were determined using in vitro assays as described below. […] Plates were read on a fluorometer with excitation and emission wavelengths set to 320 nm and 405 nm, respectively. […]

Some compounds with known IC50 results, for comparison:
- CCCc1cc(C(=O)N[C@H](Cc2ccccc2)[C@@H](O)C(=O)O)nn1Cc1ccc(-c2ccccc2S(=O)(=O)NC(=O)[C@@H](C)O)cc1: ≤ 100 nM
- CCCc1cc(C(=O)N[C@H](Cc2ccccc2)[C@@H](O)C(=O)O)nn1Cc1ccc(-c2ccccc2S(=O)(=O)NC(=O)C(C)(C)O)cc1: ≤ 100 nM
- CCCc1cc(C(=O)N[C@H](Cc2ccccc2)[C@@H](O)C(=O)O)nn1Cc1ccc(-c2ccccc2S(=O)(=O)NC(=O)OCC)cc1: ≤ 1000 nM
- CCCc1cc(C(=O)N[C@@H](CC(=O)NO)Cc2ccccc2Cl)nn1Cc1ccc(-c2ccccc2-c2nnn[nH]2)cc1: ≤ 100 nM
- CCCc1cc(C(=O)N[C@@H](CC(=O)O)Cc2ccccc2Cl)nn1Cc1ccc(-c2ccccc2S(=O)(=O)NC(=O)COC)cc1: ≤ 1000 nM
- CCCc1cc(C(=O)N[C@@H](CC(=O)NO)Cc2ccccc2)nn1Cc1ccc(-c2ccccc2S(=O)(=O)NC(C)=O)cc1F: ≤ 100 nM
- CCCc1cc(C(=O)N[C@@H](CC(=O)O)Cc2cccc(F)c2)nn1Cc1ccc(-c2ccccc2-c2nnn[nH]2)nc1: ≤ 100 nM
- CCOc1cc(C(=O)N[C@@H](CS)Cc2ccccc2)nn1Cc1ccc(-c2ccccc2S(=O)(=O)NC(C)=O)cc1F: ≤ 100 nM
- CCCc1cc(C(=O)N[C@H](Cc2ccccc2)[C@@H](O)C(=O)O)nn1Cc1ccc(-c2ccccc2-c2nnn[nH]2)nc1: ≤ 100 nM
- CCCc1cc(C(=O)N[C@H](Cc2ccccc2)[C@@H](O)C(=O)O)nn1Cc1ccc(-c2ccccc2S(=O)(=O)NC(C)=O)cn1: ≤ 100 nM

Problem: Need IC50 of CCCc1cc(C(=O)N[C@H](Cc2ccccc2Cl)[C@@H](O)C(=O)O)nn1Cc1ccc(-c2ccccc2S(=O)(=O)NC(C)=O)cc1 , thanks.
Result: ≤ 100 nM

Problem: Check CCCc1cc(C(=O)N[C@@H](CC(=O)O)Cc2ccccc2C(F)(F)F)nn1Cc1ccc(-c2ccccc2-c2nnn[nH]2)c(F)c1 too.
Result: ≤ 1000 nM

Problem: Check CCCc1cc(C(=O)N[C@H](Cc2ccccc2)[C@@H](O)C(=O)O)nn1Cc1ccc(-c2ccccc2-c2nnn[nH]2)cn1 too.
Result: ≤ 1000 nM
